assay: clinical; conditions: human, in vivo, 35 mg/m2
quantity-kind: AUC(0-t) (ng·h/mL)
Return type: number; implicit unit ng·h/mL.

Input: Item COc1ccc(/C=C\c2cc(OC)c(OC)c(OC)c2)cc1NC(=O)[C@@H](N)CO has what recorded AUC(0-t)?
Output: 491

* * *

assay: clinical; details: human, in vivo, 30 mg/m2
quantity-kind: AUC(0-t) (ng·h/mL)
Return type: number; implicit unit ng·h/mL.

Input: Item COc1ccc(/C=C\c2cc(OC)c(OC)c(OC)c2)cc1NC(=O)[C@@H](N)CO has what recorded AUC(0-t)?
Output: 508

* * *

assay: clinical; conditions: human, in vivo, 20 mg/m2
quantity-kind: AUC(0-t) (ng·h/mL)
Return type: number; implicit unit ng·h/mL.

Input: Item COc1ccc(/C=C\c2cc(OC)c(OC)c(OC)c2)cc1NC(=O)[C@@H](N)CO has what recorded AUC(0-t)?
Output: 351

Reference source for all entries: patent US20130122113A1
